biological target: Epidermal growth factor receptor (Homo sapiens, UniProt P00533); assay: Inhibition of EGFR by HTRF assay
Sequence (P00533 whole entry): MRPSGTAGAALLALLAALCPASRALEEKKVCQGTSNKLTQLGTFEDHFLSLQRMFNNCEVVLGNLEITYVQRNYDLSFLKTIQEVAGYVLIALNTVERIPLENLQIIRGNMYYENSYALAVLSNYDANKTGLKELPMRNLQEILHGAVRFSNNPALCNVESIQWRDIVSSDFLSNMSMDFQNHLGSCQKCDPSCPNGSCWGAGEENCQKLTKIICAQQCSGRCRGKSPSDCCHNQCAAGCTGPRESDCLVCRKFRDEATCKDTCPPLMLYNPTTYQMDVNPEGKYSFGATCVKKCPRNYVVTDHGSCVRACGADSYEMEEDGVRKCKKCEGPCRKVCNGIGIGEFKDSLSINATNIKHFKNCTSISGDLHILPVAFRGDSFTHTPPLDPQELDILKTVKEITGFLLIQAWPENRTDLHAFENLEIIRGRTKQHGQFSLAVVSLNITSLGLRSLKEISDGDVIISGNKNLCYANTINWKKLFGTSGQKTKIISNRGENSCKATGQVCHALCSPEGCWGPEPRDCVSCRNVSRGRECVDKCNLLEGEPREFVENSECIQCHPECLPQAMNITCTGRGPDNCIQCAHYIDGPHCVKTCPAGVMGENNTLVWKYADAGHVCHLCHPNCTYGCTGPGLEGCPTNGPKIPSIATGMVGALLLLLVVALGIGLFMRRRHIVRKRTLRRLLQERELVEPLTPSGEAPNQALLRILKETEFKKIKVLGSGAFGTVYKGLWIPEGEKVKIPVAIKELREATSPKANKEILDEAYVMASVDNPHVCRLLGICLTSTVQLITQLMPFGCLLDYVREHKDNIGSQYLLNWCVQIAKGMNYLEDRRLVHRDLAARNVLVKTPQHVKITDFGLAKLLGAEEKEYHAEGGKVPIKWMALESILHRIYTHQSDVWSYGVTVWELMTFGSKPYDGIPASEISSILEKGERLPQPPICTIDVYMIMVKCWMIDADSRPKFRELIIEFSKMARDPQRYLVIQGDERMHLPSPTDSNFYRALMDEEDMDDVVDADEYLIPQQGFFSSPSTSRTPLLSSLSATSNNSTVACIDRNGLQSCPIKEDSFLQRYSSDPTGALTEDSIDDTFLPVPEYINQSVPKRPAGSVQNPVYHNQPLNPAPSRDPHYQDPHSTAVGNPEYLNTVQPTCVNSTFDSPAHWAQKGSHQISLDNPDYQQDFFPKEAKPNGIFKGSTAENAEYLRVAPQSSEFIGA
Please go through the items and note down their pIC50.
Scale note: pIC50 = -log10(concentration in M).

Measured pIC50 of "CS(=O)(=O)CCNC(=O)O[C@H]1CN[C@H](C#Cc2cc3ncnc(Nc4ccc(OCc5cccc(F)c5)c(Cl)c4)c3s2)C1" : 7.40

Measured pIC50 of "CCNC(=O)O[C@@H]1CN[C@@H](C#Cc2cc3ncnc(Nc4ccc(OCc5cccc(F)c5)c(Cl)c4)c3s2)C1" : 7.30

Measured pIC50 of "CCNC(=O)O[C@H]1CN[C@@H](C#Cc2cc3ncnc(Nc4ccc(OCc5cccc(F)c5)c(Cl)c4)c3s2)C1" : 7.49

Measured pIC50 of "O=C(O[C@H]1CN[C@H](C#Cc2cc3ncnc(Nc4ccc(OCc5cccc(F)c5)c(Cl)c4)c3s2)C1)N1CCNCC1" : 7.20

Measured pIC50 of "CCN(C)C(=O)O[C@H]1CN[C@H](C#Cc2cc3ncnc(Nc4ccc(OCc5cccc(F)c5)c(Cl)c4)c3s2)C1" : 7.30

Measured pIC50 of "NC(=O)O[C@H]1CN[C@H](C#Cc2cc3ncnc(Nc4ccc(OCc5cccc(F)c5)c(Cl)c4)c3s2)C1" : 7.40
